- assayText: Quantitative High-Throughput drug screen in 47 multiple myeloma cell lines against the NCATS MIPE library collection: XG1_PLB cell viability assay (AID 1919866); further: nearly all actives have a fitted effect of over 35% in size; further: potency means the concentration at half of the fitted maximal effect
- testConditions: CellTiter-Glo ATP, 48 h; series mostly up to 45.8 µM
Records with an inconclusive call do not appear. Active and inactive are the calls of the source. The call rests on the fitted dose curve; in most records, active means well fitted cell-killing curve with a large enough effect; inconclusive means small, poorly fitted or top-dose-only effect, or effect the other way; inactive means no such curve, though single readings can be large or run the other way.
property: Potency

* CC(=O)O[C@H]1C[C@@H]2CC[C@H]3[C@H]4C[C@H]([N+]5(C)CCCCC5)[C@@H](OC(C)=O)[C@@]4(C)CC[C@@H]3[C@@]2(C)C[C@H]1[N+]1(C)CCCCC1 | inactive
* CC(C(C)N1CC(=O)NC(=O)C1)N1CC(=O)NC(=O)C1 (stereo not drawn) | inactive
* CNC(=O)c1cccc(-c2ccc3c(N4CCOC[C@H]4C)nc(N4CCOC[C@H]4C)nc3n2)c1 | 11.8 nM (active)
* CC(=O)ON=C1C(c2c(O)[nH]c3cc(Br)ccc23)=Nc2ccccc21 | 1660 nM (active)
* Oc1ccc(-c2ccc(-c3cc(Nc4cccc(CNC5CC5)c4)n[nH]3)cc2)c(O)c1 | 526 nM (active)
* COc1ccc(CCC(=O)c2c(O)cc(O[C@@H]3O[C@H](CO)[C@@H](O)[C@H](O)[C@@H]3O[C@@H]3O[C@@H](C)[C@H](O)[C@@H](O)[C@@H]3O)cc2O)cc1O | 7430 nM (active)
* Cc1cc(O)c2c(c1)C(=O)c1cccc(O)c1C2=O | inactive
* C=CC(=O)Nc1cccc(Nc2nc(NC3CCC(N(C)C)CC3)nc3c2ncn3C(C)C)c1 (stereo not drawn) | 105 nM (active)

* * *

- assayText: Quantitative High-Throughput drug screen in 47 multiple myeloma cell lines against the NCATS MIPE library collection: KMS26_JCRB cell viability assay (AID 1918975); further: nearly all actives have a fitted effect of over 45% in size
- testConditions: KMS26 myeloma cells viability, CellTiter-Glo ATP, 48 h; series mostly up to 45.8 µM
Results filed as inconclusive are left out. Calls of active or inactive are those of the source. Calls come from the whole dose curve; as a rule, active = well fitted cell-killing curve with a large enough effect; inconclusive = small, poorly fitted or top-dose-only effect, or effect the other way; inactive = no such curve, though single readings can be large or run the other way.
Possible outcomes: yes (1) for active, no (0) for inactive

- O=C1c2cccc(O)c2C(=O)c2c(O)cc(CO)cc21: no (0)
- O=C(CN1C(=O)C2(CCCC2)NC[C@H]1c1cc(F)cc(F)c1)Nc1ccc2c(c1)C[C@@]1(C2)C(=O)Nc2ncccc21: no (0)
- Cn1cc(CNCC2CCN(c3ncc(C(=O)NO)cn3)CC2)c2ccccc21: yes (1)
- C=C1C(=CC=C2CCC[C@]3(C)[C@@H]([C@H](C)CCCC(C)(C)O)CC[C@@H]23)C[C@@H](O)C[C@@H]1O: yes (1)
- c1cncc(CN2CCC(n3ncc4c(N5CCOCC5)nc(-c5ccc6[nH]ccc6c5)nc43)CC2)c1: yes (1)
- Cc1ccc2nc(NCCN)c3ncc(C)n3c2c1: yes (1)
- Nc1ccn(C[C@@H](CO)OCP(=O)(O)O)c(=O)n1: no (0)
- CC(C)n1cnc2c(NCCc3ccc(O)cc3)nc(-c3csc4ccccc34)nc21: yes (1)
- O=C(Nc1cc2cc[nH]c2cn1)c1ccccc1: yes (1)
- CNC(=O)c1ccc(Nc2cc(Nc3ccccc3S(=O)(=O)C(C)C)c3cc[nH]c3n2)nc1: yes (1)
- NS(=O)(=O)OC[C@@H]1C[C@@H](n2ccc3c(N[C@H]4CCc5ccccc54)ncnc32)C[C@H]1O: yes (1)
- CC1(C)O[C@@H]2C[C@H]3[C@@H]4CCC5=CC(=O)C=C[C@]5(C)[C@@H]4[C@@H](O)C[C@]3(C)[C@]2(C(=O)CO)O1: no (0)
